# SYSTEM_TESTED: sRANKL recombinant (RANKL) (Homo sapiens)
# Construct: gene TNFSF11; human is named only for the docking model (3URF), whose residue numbers (K181, Y235, Q237, Y241) fit human RANKL
# Sequence (O14788 140-317 limits assumed): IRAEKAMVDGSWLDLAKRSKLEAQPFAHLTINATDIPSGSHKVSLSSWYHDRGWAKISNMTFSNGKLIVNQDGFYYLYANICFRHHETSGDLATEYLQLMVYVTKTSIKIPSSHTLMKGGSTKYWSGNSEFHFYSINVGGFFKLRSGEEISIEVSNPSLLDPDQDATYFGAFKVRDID
# METHOD_SUMMARY: isothermal titration calorimetry (ITC), single binding mode fit
# REPORTED_CONDITIONS: read-out: KA × 10^3 (L/mol) (converted)
This listing pairs compounds with measured Kd.
Respond with the bare value in µM.

Example cases with answers are listed next.
# SAMPLE_SMILES, Kd (µM)
measured = [
    ("O=c1oc2cc(O)ccc2c2oc3cc(O)ccc3c12", 1430),
    ("O=c1c(-c2ccc(O)cc2)coc2cc(O)ccc12", 62.7),
    ("O=c1c(-c2ccc(O)cc2)coc2cc(O)cc(O)c12", 317),
    ("COc1ccc(-c2coc3cc(O)cc(O)c3c2=O)cc1", 833),
]

Consider now this further compound.
**Q:** What measured Kd goes with "COc1ccc(-c2coc3cc(O)ccc3c2=O)cc1" ?
**A:** 318
